Tested system: hT2R8 (Homo sapiens (Human), UniProt Q9NYW2)
Sequence (Q9NYW2 whole entry): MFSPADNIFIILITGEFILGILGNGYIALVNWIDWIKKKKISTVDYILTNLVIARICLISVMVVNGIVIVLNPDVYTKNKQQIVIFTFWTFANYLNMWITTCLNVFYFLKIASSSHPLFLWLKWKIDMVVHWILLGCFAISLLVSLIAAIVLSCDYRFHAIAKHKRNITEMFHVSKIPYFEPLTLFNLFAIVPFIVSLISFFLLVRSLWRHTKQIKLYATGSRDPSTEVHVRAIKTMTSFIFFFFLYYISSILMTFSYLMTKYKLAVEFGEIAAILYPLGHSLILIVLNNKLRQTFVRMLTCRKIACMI
Protocol text: hT2R8 antagonist high-throughput FLIPR assay, stable cell line with G16g44, agonist andrographolide
Type: cell-based
Test conditions: read-out: IC50 on hT2R8 bitter receptor
Task for the reader: assign each of the following compounds its reported pIC50.
One number for each entry, as −log10 of the molar value.

Take a look at these entries with their results.
Supply pIC50 value. Item: Cc1noc(C)c1Cn1cc(-n2c(=O)n(C)n(Cc3ccccc3)c2=O)cn1 [Example 10-65]
7.70

Supply pIC50 value. Item: Cc1noc(C)c1Cn1cc(N2C(=O)NC(CO)C2=O)cn1 (centres unmarked) [Example 10-97]
5.52

Supply pIC50 value. Item: Cc1noc(C)c1Cn1cc(N2C(=O)[C@H](C)N(Cc3ccccc3)C2=O)cn1 [Example 12-11]
8.00

Supply pIC50 value. Item: Cc1noc(C)c1Cn1cc(N2C(=O)CN(Cc3ccccc3C#N)C2=O)cn1 [Example 10-19]
6.30

Supply pIC50 value. Item: Cc1noc(C)c1Cn1cc(N2Cc3ccccc3C2=O)cn1 [Example 9-3]
4.96

Supply pIC50 value. Item: Cc1noc(C)c1Cn1cc(-n2c(=O)[nH]c(=O)n(CCc3ccccc3)c2=O)cn1 [Example 9-8]
5.52

Supply pIC50 value. Item: Cc1noc(C)c1Cn1cc(N2C(=O)N(Cc3cccc(O)c3)C(C)(CO)C2=O)cn1 (centres unmarked) [Example 12-10]
6.89

Next:
Supply pIC50 value. Item: Cc1noc(C)c1Cn1cc(N2C(=O)C(Cc3ccccc3)N(C)C2=O)cn1 (centres unmarked) [Example 10-42]
6.82

---

Tested system: hT2R8 (Homo sapiens (Human), UniProt Q9NYW2)
Protocol text: hT2R8 antagonist high-throughput FLIPR assay, stable cell line with G16g44, agonist andrographolide
Type: cell-based
Test conditions: read-out: IC50 on hT2R8 bitter receptor
Binary label based on IC50 with cut-off 300 nM: below gives true (1), not below gives false (0).

Given the entry Cc1noc(C)c1Cn1cc(N2C(=O)N/C(=C\c3ccccc3)C2=O)cn1 [Example 10-63] , would its reported IC50 be below 300 nM?
false (0)

Given the entry Cc1noc(C)c1Cn1cc(-n2c(=O)[nH]c3ccccc3c2=O)cn1 [Example 9-4] , would its reported IC50 be below 300 nM?
false (0)

Given the entry Cc1noc(C)c1Cn1cc(N2C(=O)CN(Cc3ccccn3)C2=O)cn1 [Example 10-54] , would its reported IC50 be below 300 nM?
false (0)

Given the entry Cc1noc(C)c1Cn1cc(-n2c(=O)[nH]c(=O)n(Cc3ccccc3)c2=O)cn1 [Example 9-9] , would its reported IC50 be below 300 nM?
false (0)

Given the entry Cc1noc(C)c1Cn1cc(N2C(=O)NC(C)(C)C2=O)cn1 [Example 12-16a] , would its reported IC50 be below 300 nM?
false (0)

Given the entry Cc1noc(C)c1Cn1cc(N2C(=O)NC(CC(=O)NCc3ccccc3)C2=O)cn1 (stereo not shown) [Example 10-49] , would its reported IC50 be below 300 nM?
false (0)

Given the entry Cc1noc(C)c1CN1CC(=O)N(c2cnn(Cc3c(C)noc3C)c2)C1=O [Example 10-55] , would its reported IC50 be below 300 nM?
true (1)

Given the entry Cc1noc(C)c1Cn1cc(NC(=O)/C=C/c2ccccc2)cn1 [Example 4-15] , would its reported IC50 be below 300 nM?
false (0)

Next:
Given the entry COc1ccc(CN2C(=O)N(c3cnn(Cc4c(C)noc4C)c3)C(=O)C2(C)C)cc1O [Example 12-2] , would its reported IC50 be below 300 nM?
true (1)

Given the entry Cc1noc(C)c1Cn1cc(NC(=O)[C@@H](C)c2ccccc2)cn1 [Example 4-3] , would its reported IC50 be below 300 nM?
false (0)

Given the entry COc1ccc(CCN2CC(=O)N(c3cnn(Cc4c(C)noc4C)c3)C2=O)cc1 [Example 10-79] , would its reported IC50 be below 300 nM?
true (1)

Given the entry Cc1noc(C)c1Cn1cc(N2C(=O)CN(CCc3ccccc3)C2=O)cn1 [Example 10-78] , would its reported IC50 be below 300 nM?
true (1)

Given the entry COC(=O)c1cccc(CN2CC(=O)N(c3cnn(Cc4c(C)noc4C)c3)C2=O)c1 [Example 10-7] , would its reported IC50 be below 300 nM?
true (1)

---

Tested system: hT2R8 (Homo sapiens (Human))
Protocol text: hT2R8 antagonist high-throughput FLIPR assay, stable cell line with G16g44, agonist andrographolide
Assay type: cell-based
Test conditions: Table A; read-out: hT2R8 IC50
Binary label based on IC50 with cut-off 2 µM: below gives rule met, not below gives rule not met.

Given the entry `Cc1noc(C)c1Cn1cc(NC(=O)c2ccncc2)cn1` , would its reported IC50 be below 2 µM?
rule not met

Given the entry `Cc1noc(C)c1Cn1cc(NC(=O)C2CCCCC2)cn1` , would its reported IC50 be below 2 µM?
rule not met

Given the entry `COc1cc(CC(=O)Nc2cnn(Cc3c(C)noc3C)c2)ccc1O` , would its reported IC50 be below 2 µM?
rule not met

Next:
Given the entry `Cc1noc(C)c1Cn1cc(NC(=O)Cc2ccoc2)cn1` , would its reported IC50 be below 2 µM?
rule not met

Given the entry `Cc1noc(C)c1Cn1cc(NC(=O)c2cccc(Cl)c2)cn1` , would its reported IC50 be below 2 µM?
rule met

Given the entry CC(=O)OC(C(=O)Nc1cnn(Cc2c(C)noc2C)c1)c1ccccc1 (stereo not shown) , would its reported IC50 be below 2 µM?
rule met

Given the entry `Cc1noc(C)c1Cn1cc(NC(=O)CCCc2ccccc2)cn1` , would its reported IC50 be below 2 µM?
rule met

Given the entry `Cc1noc(C)c1Cn1cc(NC(=S)Nc2ccccc2C#N)cn1` , would its reported IC50 be below 2 µM?
rule not met

Given the entry `CO[C@H](C(=O)Nc1cnn(Cc2c(C)noc2C)c1)c1ccccc1` , would its reported IC50 be below 2 µM?
rule not met

Given the entry `Cc1noc(C)c1Cn1cc(C(=O)NCc2cccs2)sc1=O` , would its reported IC50 be below 2 µM?
rule not met

Given the entry `Cc1noc(C)c1Cn1cc(NC(=O)[C@H](C)c2ccccc2)cn1` , would its reported IC50 be below 2 µM?
rule not met

Given the entry `Cc1cc(C(=O)Nc2cnn(Cc3c(C)noc3C)c2)n(C)n1` , would its reported IC50 be below 2 µM?
rule not met

Given the entry `COc1cc(OC)cc(C(=O)Nc2cnn(Cc3c(C)noc3C)c2)c1` , would its reported IC50 be below 2 µM?
rule met

Given the entry CCC(C)CC(=O)Nc1cnn(Cc2c(C)noc2C)c1 (stereo not shown) , would its reported IC50 be below 2 µM?
rule met

Given the entry `Cc1ccc(C(=O)Nc2cnn(Cc3c(C)noc3C)c2)o1` , would its reported IC50 be below 2 µM?
rule not met

Given the entry `Cc1ccccc1S(=O)(=O)Nc1cnn(Cc2c(C)noc2C)c1` , would its reported IC50 be below 2 µM?
rule not met

Given the entry `COC(=O)c1sccc1S(=O)(=O)Nc1cnn(Cc2c(C)noc2C)c1` , would its reported IC50 be below 2 µM?
rule met

Given the entry CCC(C(=O)Nc1cnn(Cc2c(C)noc2C)c1)c1ccccc1 (stereo not shown) , would its reported IC50 be below 2 µM?
rule met

Given the entry `Cc1ccccc1NC(=S)Nc1cnn(Cc2c(C)noc2C)c1` , would its reported IC50 be below 2 µM?
rule not met

Given the entry `COc1ccc(O)c(C(=O)Nc2cnn(Cc3c(C)noc3C)c2)c1` , would its reported IC50 be below 2 µM?
rule met

Given the entry `Cc1noc(C)c1Cn1cc(NC(=O)c2cccnc2)cn1` , would its reported IC50 be below 2 µM?
rule met

Given the entry `Cc1nc2cc(C(=O)Nc3cnn(Cc4c(C)noc4C)c3)ccc2[nH]1` , would its reported IC50 be below 2 µM?
rule met

Given the entry `Cc1noc(C)c1Cn1cc(N(C)C(=O)[C@@H](C)c2ccccc2)cn1` , would its reported IC50 be below 2 µM?
rule not met

Given the entry `COc1ccc(CC(=O)Nc2cnn(Cc3c(C)noc3C)c2)cc1` , would its reported IC50 be below 2 µM?
rule met

Given the entry `COc1ccccc1CC(=O)Nc1cnn(Cc2c(C)noc2C)c1` , would its reported IC50 be below 2 µM?
rule met

Given the entry `Cc1noc(C)c1Cn1cc(NC(=O)c2ccc3nccnc3c2)cn1` , would its reported IC50 be below 2 µM?
rule met

---

Tested system: hT2R14 (Homo sapiens (Human), UniProt Q9NYV8)
Sequence (Q9NYV8 whole entry): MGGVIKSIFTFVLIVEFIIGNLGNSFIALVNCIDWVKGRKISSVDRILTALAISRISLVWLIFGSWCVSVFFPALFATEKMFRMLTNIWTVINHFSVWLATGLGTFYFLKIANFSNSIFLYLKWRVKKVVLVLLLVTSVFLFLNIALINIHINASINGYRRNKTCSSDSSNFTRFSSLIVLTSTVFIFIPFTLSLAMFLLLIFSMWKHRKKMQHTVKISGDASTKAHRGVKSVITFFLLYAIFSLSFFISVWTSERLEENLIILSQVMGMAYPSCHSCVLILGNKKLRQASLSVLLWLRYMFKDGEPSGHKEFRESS
Protocol text: hT2R panel inhibition, transient HEK293 G16g44, agonist Aristolochic Acid 2 μM
Assay type: cell-based
Test conditions: HEK293, compound at 25 μM; receptor activated to EC80 with the corresponding agonist; read-out: screening result against bitter receptor 14
Task for the reader: assign each of the following compounds its reported inhibition at 25 µM.

Take a look at these entries with their results.
Supply inhibition at 25 µM value. Item: `COc1ccc(CN(Cc2ccccc2)S(=O)(=O)Cc2ccc(C(=O)O)cc2)cc1`
20 to 40%

Supply inhibition at 25 µM value. Item: O=C(O)C1CCC(CN(Cc2ccc(F)cc2)S(=O)(=O)c2ccccn2)CC1 (centres unmarked)
40 to 60%

Supply inhibition at 25 µM value. Item: `COc1ccc(CN(Cc2ccccc2Cl)S(=O)(=O)c2ccc(C(=O)O)cc2)cc1`
> 80%

Supply inhibition at 25 µM value. Item: COc1ccc(CN(C2CCCc3ccccc32)S(=O)(=O)c2ccc(C(=O)O)cc2)cc1 (centres unmarked)
> 80%

Supply inhibition at 25 µM value. Item: `CN(Cc1ccccc1)S(=O)(=O)c1ccc(C(=O)O)cc1`
> 80%

Hey, can you go through the list below and give me inhibition at 25 µM for every item?
1. COc1cccc(CN(Cc2ccccc2)S(=O)(=O)c2ccc(C(=O)O)cc2)c1
2. COc1ccc(CCN(Cc2ccccc2)S(=O)(=O)c2ccc(C(=O)O)cc2)cc1
3. COc1ccccc1CN(Cc1ccco1)S(=O)(=O)c1ccc(C(=O)O)cc1
4. O=C(O)c1ccc(CN(Cc2ccccc2)S(=O)(=O)c2ccc(C(=O)O)cc2)cc1
5. COc1ccccc1CN(Cc1ccccc1)S(=O)(=O)c1ccc(C(=O)O)cc1
6. COc1ccc(CN(Cc2ccccc2OC)S(=O)(=O)c2ccc(C(=O)O)cc2)cc1

> 80%
> 80%
40 to 60%
> 80%
> 80%
> 80%

Source listed as patent US9247759B2.
